Answer each item with its documented Ki.
biological target: purified human plasma kallikrein (Homo sapiens (Human)); test: Plasma kallikrein enzyme inhibition assay (chromogenic substrate S-2302); format: biochemical; details: measured at 25° C. (no asterisk)
Sequence (P03952 391-638): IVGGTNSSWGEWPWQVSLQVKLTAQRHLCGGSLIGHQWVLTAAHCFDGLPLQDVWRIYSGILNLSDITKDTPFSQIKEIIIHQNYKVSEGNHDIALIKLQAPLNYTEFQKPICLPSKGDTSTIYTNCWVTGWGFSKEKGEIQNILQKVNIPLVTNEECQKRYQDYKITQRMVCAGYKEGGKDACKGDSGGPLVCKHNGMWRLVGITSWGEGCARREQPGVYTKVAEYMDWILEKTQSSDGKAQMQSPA
Sequence (P03952 20-390 partner): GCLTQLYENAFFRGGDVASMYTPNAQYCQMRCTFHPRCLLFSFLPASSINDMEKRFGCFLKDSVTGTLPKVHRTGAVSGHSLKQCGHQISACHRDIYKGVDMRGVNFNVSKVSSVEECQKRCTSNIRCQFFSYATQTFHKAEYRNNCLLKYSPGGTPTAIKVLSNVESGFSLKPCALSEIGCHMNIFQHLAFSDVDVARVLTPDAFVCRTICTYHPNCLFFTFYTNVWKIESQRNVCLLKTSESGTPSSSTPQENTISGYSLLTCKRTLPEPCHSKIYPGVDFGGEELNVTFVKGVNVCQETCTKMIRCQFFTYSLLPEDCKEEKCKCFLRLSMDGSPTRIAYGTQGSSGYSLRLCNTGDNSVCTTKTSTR
Where a name gives a salt, the structure may show the parent alone.
Give bare numbers, in nM.

# count of solved cases: 2
O=C(O)c1ccc(NC(=O)C2c3cccc(-c4cnc(O)nc4)c3CCN2C(=O)c2cn(-c3cccc(Cl)c3F)nn2)cc1 (stereo not drawn) [Example 34]; 0.46
O=C(O)c1ccc(NC(=O)C2c3cccc(N4CCC(N5CCCC5)CC4)c3CCN2C(=O)C2CC(c3cccc(Cl)c3)=NO2)cc1 (single isomer, unassigned) [Example 204, TFA salt]; 11

Then there is this compound:
Provide value of Ki for this record tested with purified human plasma kallikrein (Homo sapiens (Human)): COCCOc1cccc2c1CCN(C(=O)c1cn(-c3cccc(Cl)c3F)nn1)C2C(=O)Nc1ccc(C(=O)O)cc1 (stereo not drawn) [Example 113]
11.9
